Tested on: Digitaria sanguinalis
Assay info: Post-emergence herbicidal activity against Digitaria sanguinalis (hairy crabgrass) seedlings assessed as plant growth inhibition at 150 g ai/ha measured 15 days after compound treatment under greenhouse conditions
Format: functional
Measurement parameters: 360 h, read-out: GI
Observed property: inhibition of growth at 150 g/ha

Molecule | Observed property | Result
C=CCSc1nc2cc(-n3nc(C)n(C(F)F)c3=O)c(Cl)cc2s1 | inhibition of growth at 150 g/ha | < 50%
Cc1nn(-c2cc3nc(SCCC(=O)O)sc3cc2Cl)c(=O)n1C(F)F | inhibition of growth at 150 g/ha | < 50%
Cc1nn(-c2cc3nc(SC(C)C(=O)O)sc3cc2F)c(=O)n1C(F)F (stereo not drawn) | inhibition of growth at 150 g/ha | ≥ 90%
